# measuredOn: Avi-KRAS G12D (1-169) GppNHp/RAF1 RBD-3xFLAG (52-151) (Homo sapiens, UniProt P01116, G12D)
# Construct: 100 nM Avi-KRAS G12D (1-169) GppNHp
# Sequence (P01116 1-169 isoform P01116-2 G12D): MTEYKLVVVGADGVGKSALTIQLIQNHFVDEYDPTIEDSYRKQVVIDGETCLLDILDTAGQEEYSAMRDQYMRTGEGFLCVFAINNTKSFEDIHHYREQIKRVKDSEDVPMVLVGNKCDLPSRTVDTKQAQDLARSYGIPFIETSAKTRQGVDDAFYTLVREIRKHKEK
# assayProcedure: RAS-effector PPI HTRF disruption assay, Raf1-GppNHp-KRAS G12D
reportedProperty: IC50

Supply measured IC50 of C[C@H]1C[C@H](Oc2nc(OC[C@@]34CCCN3C[C@H](F)C4)nc3c(F)c(-c4ccc(F)c5sc(N)c(C#N)c45)c(Cl)cc23)CN1 [Compound 55] in your reply.
1000 to 10000 nM

Supply measured IC50 of COC[C@H]1C[C@@H](Oc2nc(OC[C@@]34CCCN3C[C@H](F)C4)nc3c(F)c(-c4ccc(F)c5sc(N)c(C#N)c45)c(C(F)(F)F)cc23)CN1 (atropisomer, axis not shown) [Compound 80] in your reply.
≤ 100 nM

Supply measured IC50 of C[C@@H]1NCC[C@H]1Oc1nc(OC[C@@]23CCCN2C[C@H](F)C3)nc2c(F)c(-c3ccc(F)c4sc(N)nc34)c(C(F)(F)F)cc12 (atropisomer, axis not shown) [Compound 8] in your reply.
100 to 1000 nM

Supply measured IC50 of Nc1nc2c(-c3c(C(F)(F)F)cc4c(O[C@H]5C[C@H]6CC[C@@H](C5)N6)nc(OCC56CCCN5CCC6)nc4c3F)ccc(F)c2s1 (atropisomer, axis not shown) in your reply.
1000 to 10000 nM

Supply measured IC50 of C[C@@H]1C[C@@H](Oc2nc(OC[C@@]34CCCN3C[C@H](F)C4)nc3c(F)c(-c4ccc(F)c5sc(N)nc45)c(C(F)(F)F)cc23)CN1 (atropisomer, axis not shown) [Compound 20] in your reply.
100 to 1000 nM

Supply measured IC50 of Nc1nc2c(-c3ccc4c(O[C@H]5CNC[C@H]5F)nc(OC[C@@]56CCCN5C[C@H](F)C6)nc4c3F)ccc(F)c2s1 in your reply.
> 10000 nM

Supply measured IC50 of CC1(C)NCC[C@H]1Oc1nc(OC[C@@]23CCCN2C[C@H](F)C3)nc2c(F)c(-c3ccc(F)c4sc(N)nc34)c(C(F)(F)F)cc12 in your reply.
100 to 1000 nM

Supply measured IC50 of C[C@H]1NCC[C@H]1Oc1nc(OC[C@@]23CCCN2C[C@H](F)C3)nc2c(F)c(-c3ccc(F)c4scnc34)c(C(F)(F)F)cc12 in your reply.
> 10000 nM

Supply measured IC50 of Nc1nc2c(-c3c(C(F)(F)F)cc4c(O[C@H]5CN[C@H](CO)C5)nc(OCC56CCCN5C[C@H](F)C6)nc4c3F)ccc(F)c2s1 (some centres unmarked) in your reply.
100 to 1000 nM

Supply measured IC50 of C[C@H]1NCC[C@H]1Oc1nc(OC[C@@]23CCCN2C[C@H](F)C3)nc2cc(-c3ccc(F)c4sc(N)c(C#N)c34)c(C(F)(F)F)nc12 in your reply.
100 to 1000 nM

Supply measured IC50 of N#Cc1c(N)sc2c(F)ccc(-c3cc4nc(OC[C@@]56CCCN5C[C@H](F)C6)nc(O[C@H]5CNC[C@@H]5F)c4cc3C(F)(F)F)c12 in your reply.
100 to 1000 nM
